- System: Cos 1 cells
- Type: cell-based, African Green Monkey
Where a SMILES comes first, the peptide text is derived from it. The star is where a group is joined. NHC(CH2O-Palmitoyl)3 = CCCCCCCCCCCCCCCC(=O)OCC(COC(=O)CCCCCCCCCCCCCCC)(COC(=O)CCCCCCCCCCCCCCC)N*; NHC(CH2OLauroyl)3 = CCCCCCCCCCCC(=O)OCC(COC(=O)CCCCCCCCCCC)(COC(=O)CCCCCCCCCCC)N*; X4 = CCCCCCCCCCCC(=O)OCC(CO)(COC(=O)CCCCCCCCCCC)N*; X1 = CCCCCCCCCCCCCCCC(=O)OCC(CO)(CO)N*
Items are presented alongside their recorded MTS OD490-655.
Metric: MTS OD490-655

>>> recorded_number("CCCCCCCCCCCC(=O)OCC(CO)(COC(=O)CCCCCCCCCCC)NC(=O)[C@H](C)NC(=O)[C@H](CCCCN)NC(=O)[C@H](CCCCN)NC(=O)[C@@H](N)CCCCN [K3ATL2] (H-KKKA-X4)")
1.554
>>> recorded_number("CCCCCCCCCCCC(=O)OCC(COC(=O)CCCCCCCCCCC)(COC(=O)CCCCCCCCCCC)NC(=O)[C@H](C)NC(=O)[C@H](CCCCN)NC(=O)[C@H](CCCCN)NC(=O)[C@@H](N)CCCCN [K3ATL3] (H-KKKA-{NHC(CH2OLauroyl)3})")
1.363
>>> recorded_number("CCCCCCCCCCCCCCCC(=O)OCC(CO)(CO)NC(=O)[C@H](C)NC(=O)[C@H](CCCCN)NC(=O)[C@H](CCCCN)NC(=O)[C@@H](N)CCCCN [K3ATP1, trilysine alanine tris monopalmitate] (H-KKKA-X1)")
1.34
>>> recorded_number("CCCCCCCCCCCCCC(=O)OCC(COC(=O)CCCCCCCCCCCCC)(COC(=O)CCCCCCCCCCCCC)NC(=O)[C@H](C)NC(=O)[C@H](CCCCN)NC(=O)[C@H](CCCCN)NC(=O)[C@@H](N)CCCCN")
1.22
>>> recorded_number("CCCCCCCCCCCCCC(=O)OCC(CO)(COC(=O)CCCCCCCCCCCCC)NC(=O)[C@H](C)NC(=O)[C@H](CCCCN)NC(=O)[C@H](CCCCN)NC(=O)[C@@H](N)CCCCN")
1.56
>>> recorded_number("CCCCCCCCCCCCCCCC(=O)OCC(COC(=O)CCCCCCCCCCCCCCC)(COC(=O)CCCCCCCCCCCCCCC)NC(=O)[C@H](C)NC(=O)[C@H](CCCCN)NC(=O)[C@H](CCCCN)NC(=O)[C@@H](N)CCCCN [K3ATP3, trilysine alanine tris tripalmitate] (H-KKKA-{NHC(CH2O-Palmitoyl)3})")
1.244
